This collection of values is drawn from patent US11834463B2.

Target: FKBP12.6 (Homo sapiens, UniProt P68106)
Sequence (P68106 whole entry): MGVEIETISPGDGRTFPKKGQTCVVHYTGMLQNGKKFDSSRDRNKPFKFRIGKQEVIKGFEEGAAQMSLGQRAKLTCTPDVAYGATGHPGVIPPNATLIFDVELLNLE
Experiment: competitive fluorescence polarization assay, binding to FKBP12.6
Conditions: Table 1, competitive Fluorescence Polarization Assay; read-out: Ki [nM] FKBP12.6
quantity kind: Ki (nM)
Give bare numbers, in nM.

Task: Requested field: Ki. Item: COc1ccc(CC[C@H]2OC(=O)[C@@H]3CCCCN3C(=O)[C@@H](C3CCCCC3)c3cc(OC)c(OC)c(c3)OCCOCC(=O)CCOc3cccc2c3)cc1OC [Compound 62]
Output: 57

Task: And the next one, COc1ccc(CC[C@H]2OC(=O)[C@@H]3CCCCN3C(=O)[C@@H](C3CCCCC3)c3cc(OC)c(OC)c(c3)OCCCCCOc3cccc2c3)cc1OC [Compound 44] ?
Output: 65

Task: And the next one, COc1ccc(CC[C@H]2OC(=O)[C@@H]3CCCCN3C(=O)[C@@H](C3CCCCC3)c3cc(OC)c(c(OC)c3)OCCOC/C=C/COc3cccc2c3)cc1OC [33-(E)] ?
Output: 361

# batch size: 2; output Ki per entry
1. COc1ccc(CC[C@H]2OC(=O)[C@@H]3CCCCN3C(=O)[C@@H](C3CCCCC3)c3cc(OC)c(c(OC)c3)OC/C=C\COc3cccc2c3)cc1OC [31-(Z)]
2. COc1ccc(CC[C@H]2OC(=O)[C@@H]3CCCCN3C(=O)[C@@H](C3CCCCC3)c3cc(OC)c(OC)c(c3)OCCOC/C=C/COc3cccc2c3)cc1OC [37-(E)]

Output:
[328, 74]

Task: Requested field: Ki. Item: COc1ccc(CC[C@H]2OC(=O)[C@@H]3CCCCN3C(=O)[C@@H](C3CCCCC3)c3cc(OC)c(c(OC)c3)OCCOCCCCOc3cccc2c3)cc1OC [Compound 41]
Output: 230

====

Target: FKBP12 (Homo sapiens, UniProt P62942)
Sequence (P62942 whole entry): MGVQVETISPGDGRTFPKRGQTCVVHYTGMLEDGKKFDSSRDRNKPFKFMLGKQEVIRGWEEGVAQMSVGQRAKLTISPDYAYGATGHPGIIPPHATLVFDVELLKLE
Assay: competitive fluorescence polarization assay, binding to FKBP12
Conditions: Table 1, competitive Fluorescence Polarization Assay; read-out: Ki [nM] FKBP12
Binarize Ki at 300 nM; below is rule met, at or above is rule not met.

Task: Determine if COc1ccc(CC[C@H]2OC(=O)[C@@H]3CCCCN3C(=O)[C@@H](C3CCCCC3)c3cc(OC)c(OC)c(c3)OCCOC/C=C\COc3cccc2c3)cc1OC [37-(Z)] shows Ki strictly lower than 300 nM.
Output: rule met

Task: And the next one, `COc1ccc(CC[C@H]2OC(=O)[C@@H]3CCCCN3C(=O)[C@@H](C3CCCCC3)c3cc(OC)c(OC)c(c3)OCCCCOc3cccc2c3)cc1OC` ?
Output: rule met

Task: And the next one, `COc1ccc(CC[C@H]2OC(=O)[C@@H]3CCCCN3C(=O)[C@@H](C3CCCCC3)c3cc(OC)c(OC)c(c3)OCCCOCCCCOc3cccc2c3)cc1OC` ?
Output: rule not met

Task: And the next one, `COc1ccc(CC[C@H]2OC(=O)[C@@H]3CCCCN3C(=O)[C@@H](C3CCCCC3)c3cc(OC)c(c(OC)c3)OCCCOc3cccc2c3)cc1OC` ?
Output: rule not met

Task: And the next one, `COc1ccc(CC[C@H]2OC(=O)[C@@H]3CCCCN3C(=O)[C@@H](C3CCCCC3)c3cc(OC)c(OC)c(c3)OCCCOc3cccc2c3)cc1OC` ?
Output: rule not met

Task: And the next one, COc1cccc([C@@H](CCc2ccc(OC)c(OC)c2)OC(=O)[C@@H]2CCCCN2C(=O)[C@H](c2cc(OC)c(OC)c(OC)c2)C2CCCCC2)c1 [Compound A1, reference compound] ?
Output: rule met

Continuing:
Task: Determine if COc1ccc(CC[C@H]2OC(=O)[C@@H]3CCCCN3C(=O)[C@@H](C3CCCCC3)c3cc(OC)c(c(OC)c3)OCC(O)C(O)COc3cccc2c3)cc1OC (mixture of isomers) shows Ki strictly lower than 300 nM.
Output: rule met

Task: And the next one, `COc1ccc(CC[C@H]2OC(=O)[C@@H]3CCCCN3C(=O)[C@@H](C3CCCCC3)c3cc(OC)c(c(OC)c3)OCCOc3cccc2c3)cc1OC` ?
Output: rule not met

Task: And the next one, COc1ccc(CC[C@H]2OC(=O)[C@@H]3CCCCN3C(=O)[C@@H](C3CCCCC3)c3cc(OC)c(OC)c(c3)OCCCOC/C=C/COc3cccc2c3)cc1OC [38-(E)] ?
Output: rule met

Task: And the next one, COc1ccc(CCC2OC(=O)C3CCCCN3C(=O)C(C3CCCCC3)c3cc(OC)c(OC)c(c3)OCC(O)C(O)COc3cccc2c3)cc1OC (single isomer, unassigned) [Compound 64b] ?
Output: rule met
